test system: PC-14; test: relative viability (nuclei count vs DMSO), 5 days (fraction); higher = more cells survive; details: first compound 0.1 µM
PROPERTY: relative viability

1) O=c1cc(N2CCOCC2)oc2c(-c3cccc4c3sc3ccccc34)cccc12 + Nc1ncn([C@H]2C[C@H](O)[C@@H](CO)O2)c(=O)n1 [Decitabine] (partner 2 µM)
0.191
2) O=c1cc(N2CCOCC2)oc2c(-c3cccc4c3sc3ccccc34)cccc12 + COc1cccc2cc(-c3nc([C@H]4CC[C@H](C(=O)O)CC4)n4ncnc(N)c34)[nH]c12 [OSI-027] (partner 0.5 µM)
0.74
3) CCN(CC)CCCCNc1ncc2cc(-c3cc(OC)cc(OC)c3)c(NC(=O)NC(C)(C)C)nc2n1 + CS(=O)(=O)CCNCc1ccc(-c2ccc3ncnc(Nc4ccc(OCc5cccc(F)c5)c(Cl)c4)c3c2)o1 [Lapatinib] (partner 2 µM)
0.391

###

system: EKVX; test: relative viability (nuclei count vs DMSO), 5 days (fraction); higher = more cells survive; settings: first compound 0.3162 µM
// reported relative viability for each item listed
PROPERTY: relative viability

1) CCN(CC)CCCCNc1ncc2cc(-c3cc(OC)cc(OC)c3)c(NC(=O)NC(C)(C)C)nc2n1 + C[C@@H](Oc1cc(-c2cnn(C3CCNCC3)c2)cnc1N)c1c(Cl)ccc(F)c1Cl [Crizotinib] (partner 1 µM)
0.841
2) CCN(CC)CCCCNc1ncc2cc(-c3cc(OC)cc(OC)c3)c(NC(=O)NC(C)(C)C)nc2n1 + O=C(c1cc(Cc2n[nH]c(=O)c3ccccc23)ccc1F)N1CCN(C(=O)C2CC2)CC1 [Olaparib] (partner 8 µM)
1.05
3) CCN(CC)CCCCNc1ncc2cc(-c3cc(OC)cc(OC)c3)c(NC(=O)NC(C)(C)C)nc2n1 + CC(C)C[C@H](NC(=O)[C@H](Cc1ccccc1)NC(=O)c1cnccn1)B(O)O [Bortezomib] (partner 0.002 µM)
1.21
4) O=c1cc(N2CCOCC2)oc2c(-c3cccc4c3sc3ccccc34)cccc12 + Cc1cc(Nc2cc(N3CCN(C)CC3)nc(Sc3ccc(NC(=O)C4CC4)cc3)n2)n[nH]1 [Tozasertib] (partner 0.1 µM)
0.343

###

tested on: NCI-H1944; experiment: relative viability (nuclei count vs DMSO), 5 days (fraction); higher = more cells survive; conditions: first compound 0.8 µM
# relative viability listing for each entry below
PROPERTY: relative viability

1. COc1nc(C)cnc1NS(=O)(=O)c1cccnc1-c1ccc(-c2nnco2)cc1 [Zibotentan] + C[C@]1(O)C[C@@H](c2nc(-c3ccc4ccc(-c5ccccc5)nc4c3)c3c(N)nccn32)C1 [Linsitinib] (partner 1 µM)
1.1
2. COc1nc(C)cnc1NS(=O)(=O)c1cccnc1-c1ccc(-c2nnco2)cc1 [Zibotentan] + CC(=O)Nc1cccc(-n2c(=O)n(C3CC3)c(=O)c3c(Nc4ccc(I)cc4F)n(C)c(=O)c(C)c32)c1 [Trametinib] (partner 0.02 µM)
0.399
3. O=c1cc(-c2cccc3c2Sc2ccccc2S3)oc(N2CCOCC2)c1 + N=C(N)NC(=N)NCCc1ccccc1 [Phenformin] (partner 250 µM)
0.186
4. COc1nc(C)cnc1NS(=O)(=O)c1cccnc1-c1ccc(-c2nnco2)cc1 [Zibotentan] + Nc1nc2[nH]cc(CCc3ccc(C(=O)N[C@@H](CCC(=O)O)C(=O)O)cc3)c2c(=O)[nH]1 [Pemetrexed] (partner 0.2 µM)
0.61
5. O=c1cc(-c2cccc3c2Sc2ccccc2S3)oc(N2CCOCC2)c1 + CS(=O)(=O)CCNCc1ccc(-c2ccc3ncnc(Nc4ccc(OCc5cccc(F)c5)c(Cl)c4)c3c2)o1 [Lapatinib] (partner 2 µM)
0.733

###

relative viability values for the molecules below.
system: NCI-H647; test: relative viability (nuclei count vs DMSO), 5 days (fraction); higher = more cells survive; settings: first compound 0.1 µM
PROPERTY: relative viability

1) CCN(CC)CCCCNc1ncc2cc(-c3cc(OC)cc(OC)c3)c(NC(=O)NC(C)(C)C)nc2n1 + COc1cc2c(Oc3ccc(NC(=O)C4(C(=O)Nc5ccc(F)cc5)CC4)cc3F)ccnc2cc1OCCCN1CCOCC1 [Foretinib] (partner 0.25 µM)
1.43
2) O=c1cc(N2CCOCC2)oc2c(-c3cccc4c3sc3ccccc34)cccc12 + CCNC(=O)c1noc(-c2cc(C(C)C)c(O)cc2O)c1-c1ccc(CN2CCOCC2)cc1 [Luminespib] (partner 0.01 µM)
0.101
3) O=c1cc(N2CCOCC2)oc2c(-c3cccc4c3sc3ccccc34)cccc12 + COc1cc2c(Oc3ccc(NC(=O)C4(C(=O)Nc5ccc(F)cc5)CC4)cc3F)ccnc2cc1OCCCN1CCOCC1 [Foretinib] (partner 0.25 µM)
1.34
4) CCN(CC)CCCCNc1ncc2cc(-c3cc(OC)cc(OC)c3)c(NC(=O)NC(C)(C)C)nc2n1 + Cc1nc(Nc2ncc(C(=O)Nc3c(C)cccc3Cl)s2)cc(N2CCN(CCO)CC2)n1 [Dasatinib] (partner 0.075 µM)
0.209
5) CCN(CC)CCCCNc1ncc2cc(-c3cc(OC)cc(OC)c3)c(NC(=O)NC(C)(C)C)nc2n1 + C[C@@H](Oc1cc(-c2cnn(C3CCNCC3)c2)cnc1N)c1c(Cl)ccc(F)c1Cl [Crizotinib] (partner 1 µM)
1.53
6) CCN(CC)CCCCNc1ncc2cc(-c3cc(OC)cc(OC)c3)c(NC(=O)NC(C)(C)C)nc2n1 + O=C(CCCCCCC(=O)Nc1ccccc1)NO [Vorinostat] (partner 1 µM)
0.582
7) O=c1cc(N2CCOCC2)oc2c(-c3cccc4c3sc3ccccc34)cccc12 + CC(C)C[C@H](NC(=O)[C@H](Cc1ccccc1)NC(=O)c1cnccn1)B(O)O [Bortezomib] (partner 0.002 µM)
0.98
8) CCN(CC)CCCCNc1ncc2cc(-c3cc(OC)cc(OC)c3)c(NC(=O)NC(C)(C)C)nc2n1 + CC(C)C[C@H](NC(=O)[C@H](Cc1ccccc1)NC(=O)c1cnccn1)B(O)O [Bortezomib] (partner 0.002 µM)
1.6
9) CCN(CC)CCCCNc1ncc2cc(-c3cc(OC)cc(OC)c3)c(NC(=O)NC(C)(C)C)nc2n1 + Cc1nc(NC(=O)N2CCC[C@H]2C(N)=O)sc1-c1ccnc(C(C)(C)C(F)(F)F)c1 [Alpelisib] (partner 2 µM)
1.31

###

test system: SW 1573; assay: relative viability (nuclei count vs DMSO), 5 days (fraction); higher = more cells survive; conditions: first compound 2 µM
PROPERTY: relative viability

1) COCC1(CO)C(=O)C2CCN1CC2 (stereo not drawn) [PRIMA-1MET] + CS(=O)(=O)N1CCN(Cc2cc3nc(-c4cccc5[nH]ncc45)nc(N4CCOCC4)c3s2)CC1 [Pictilisib] (partner 1 µM)
0.45
2) COCC1(CO)C(=O)C2CCN1CC2 (stereo not drawn) [PRIMA-1MET] + CC1(C)CCC(c2ccc(Cl)cc2)=C(CN2CCN(c3ccc(C(=O)NS(=O)(=O)c4ccc(N[C@H](CCN5CCOCC5)CSc5ccccc5)c(S(=O)(=O)C(F)(F)F)c4)cc3)CC2)C1 [Navitoclax] (partner 0.5 µM)
0.789
3) COCC1(CO)C(=O)C2CCN1CC2 (stereo not drawn) [PRIMA-1MET] + Cc1nc(NC(=O)N2CCC[C@H]2C(N)=O)sc1-c1ccnc(C(C)(C)C(F)(F)F)c1 [Alpelisib] (partner 2 µM)
0.538

###

system: SW 1573; experiment: relative viability (nuclei count vs DMSO), 5 days (fraction); higher = more cells survive; conditions: first compound 0.253 µM
Collected relative viability values appear next to each entry.
PROPERTY: relative viability

1) O=c1cc(-c2cccc3c2Sc2ccccc2S3)oc(N2CCOCC2)c1 + CC1(C)CCC(c2ccc(Cl)cc2)=C(CN2CCN(c3ccc(C(=O)NS(=O)(=O)c4ccc(N[C@H](CCN5CCOCC5)CSc5ccccc5)c(S(=O)(=O)C(F)(F)F)c4)cc3)CC2)C1 [Navitoclax] (partner 0.5 µM)
1.14
2) O=c1cc(-c2cccc3c2Sc2ccccc2S3)oc(N2CCOCC2)c1 + CC(=O)Nc1cccc(-n2c(=O)n(C3CC3)c(=O)c3c(Nc4ccc(I)cc4F)n(C)c(=O)c(C)c32)c1 [Trametinib] (partner 0.02 µM)
0.691
3) O=c1cc(-c2cccc3c2Sc2ccccc2S3)oc(N2CCOCC2)c1 + CS(=O)(=O)CCNCc1ccc(-c2ccc3ncnc(Nc4ccc(OCc5cccc(F)c5)c(Cl)c4)c3c2)o1 [Lapatinib] (partner 2 µM)
1.28
4) COc1nc(C)cnc1NS(=O)(=O)c1cccnc1-c1ccc(-c2nnco2)cc1 [Zibotentan] + CS(=O)(=O)CCNCc1ccc(-c2ccc3ncnc(Nc4ccc(OCc5cccc(F)c5)c(Cl)c4)c3c2)o1 [Lapatinib] (partner 2 µM)
1.11

###

system: UMC-11; assay: relative viability (nuclei count vs DMSO), 5 days (fraction); higher = more cells survive; conditions: first compound 2 µM
PROPERTY: relative viability

1) COCC1(CO)C(=O)C2CCN1CC2 (stereo not given) [PRIMA-1MET] + CC(=O)c1c(C)c2cnc(Nc3ccc(N4CCNCC4)cn3)nc2n(C2CCCC2)c1=O [Palbociclib] (partner 0.5 µM)
0.268
2) COCC1(CO)C(=O)C2CCN1CC2 (stereo not given) [PRIMA-1MET] + Cc1cc(Nc2cc(N3CCN(C)CC3)nc(Sc3ccc(NC(=O)C4CC4)cc3)n2)n[nH]1 [Tozasertib] (partner 0.1 µM)
0.195
3) COCC1(CO)C(=O)C2CCN1CC2 (stereo not given) [PRIMA-1MET] + CC(C)C[C@H](NC(=O)[C@H](Cc1ccccc1)NC(=O)c1cnccn1)B(O)O [Bortezomib] (partner 0.002 µM)
0.666
4) COCC1(CO)C(=O)C2CCN1CC2 (stereo not given) [PRIMA-1MET] + O=C(c1cc(Cc2n[nH]c(=O)c3ccccc23)ccc1F)N1CCN(C(=O)C2CC2)CC1 [Olaparib] (partner 8 µM)
0.376
5) COCC1(CO)C(=O)C2CCN1CC2 (stereo not given) [PRIMA-1MET] + CS(=O)(=O)N1CCN(Cc2cc3nc(-c4cccc5[nH]ncc45)nc(N4CCOCC4)c3s2)CC1 [Pictilisib] (partner 1 µM)
0.594
